Test system: Tov112D
Assay: Primary qHTS to identify gynecologic anti-cancer compounds using libraries of approved drugs and bioactive compounds (AID 1345084); note: nearly all actives have a fitted effect of over 55% in size
Details: Gynecologic cancer cell panel viability, ATPlite luminescence, 48 h; series mostly up to 57.5 µM
Inconclusive results are not listed. The source made the active and inactive calls. Calls come from the whole dose curve; as a rule, active = well fitted cell-killing curve with a large enough effect; inconclusive = small, poorly fitted or top-dose-only effect, or effect the other way; inactive = flat fitted curve, though single readings scatter.
Outcomes: class 1 = active, class 0 = inactive

{"compound": "Nc1nc(=S)c2[nH]cnc2[nH]1", "class": "class 1"}
{"compound": "CCN(C)C(=O)Oc1cccc([C@H](C)N(C)C)c1", "class": "class 0"}
{"compound": "COc1cc(NCc2ccc3nc(N)nc(N)c3c2C)cc(OC)c1OC", "class": "class 1"}
{"compound": "COc1cc(NS(=O)(=O)c2ccc(N)cc2)nc(OC)n1", "class": "class 0"}
{"compound": "Cc1cccc(N(C)C(=S)Oc2ccc3ccccc3c2)c1", "class": "class 0"}
{"compound": "CCCCCCNC(=O)n1cc(F)c(=O)[nH]c1=O", "class": "class 0"}
{"compound": "CC(=O)Oc1ccccc1C(=O)Nc1ncc([N+](=O)[O-])s1", "class": "class 0"}
{"compound": "CCN[C@H]1C[C@H](C)S(=O)(=O)c2sc(S(N)(=O)=O)cc21", "class": "class 0"}
{"compound": "CNCC[C@H](Oc1cccc2ccccc12)c1cccs1", "class": "class 0"}
{"compound": "OC(Cn1cncn1)(Cn1cncn1)c1ccc(F)cc1F", "class": "class 0"}
{"compound": "CN1CCN(c2c(F)cc3c(=O)c(C(=O)O)cn4c3c2OCN4C)CC1", "class": "class 0"}
{"compound": "CCc1c2c(nc3ccc(OC(=O)N4CCC(N5CCCCC5)CC4)cc13)-c1cc3c(c(=O)n1C2)COC(=O)[C@]3(O)CC", "class": "class 1"}
{"compound": "C#CCN[C@@H]1CCc2ccccc21", "class": "class 0"}
{"compound": "C[C@]12C=CC(=O)C=C1CC[C@@H]1[C@@H]2C(=O)C[C@@]2(C)[C@H]1CC[C@]2(O)C(=O)CO", "class": "class 0"}
{"compound": "C[C@@H](CN1CC(=O)NC(=O)C1)N1CC(=O)NC(=O)C1", "class": "class 0"}
{"compound": "CCCc1cc(C(N)=S)ccn1", "class": "class 0"}
{"compound": "Cc1onc(-c2ccccc2Cl)c1C(=O)N[C@@H]1C(=O)N2[C@@H]1SC(C)(C)[C@@H]2C(=O)O", "class": "class 0"}
{"compound": "COc1nc(N)nc2c1ncn2[C@@H]1O[C@H](CO)[C@@H](O)[C@@H]1O", "class": "class 0"}
{"compound": "CN(C)CCc1c[nH]c2ccc(C[C@H]3COC(=O)N3)cc12", "class": "class 0"}
{"compound": "COC(=O)Nc1nc2ccc(Sc3ccccc3)cc2[nH]1", "class": "class 1"}
{"compound": "COC(=O)Nc1nc2ccc(C(=O)c3ccccc3)cc2[nH]1", "class": "class 1"}
{"compound": "Cc1oc(=O)oc1CN1CCN(c2cc3c(cc2F)c(=O)c(C(=O)O)c2n3C(C)S2)CC1 (stereo not drawn)", "class": "class 0"}
{"compound": "COc1ccc2c(c1)c(CC(=O)OCC(=O)O)c(C)n2C(=O)c1ccc(Cl)cc1", "class": "class 0"}
{"compound": "NCCCC(O)(P(=O)(O)O)P(=O)(O)O", "class": "class 0"}
{"compound": "CCCc1nc(C)c2c(=O)[nH]c(-c3cc(S(=O)(=O)N4CCN(CC)CC4)ccc3OCC)nn12", "class": "class 0"}
{"compound": "COc1ccccc1OCC(O)COC(N)=O (stereo not drawn)", "class": "class 0"}
{"compound": "CC(=O)CC(c1ccccc1)c1c(O)c2ccccc2oc1=O (stereo not drawn)", "class": "class 0"}
{"compound": "NC(=O)N1c2ccccc2CC(=O)c2ccccc21", "class": "class 0"}
{"compound": "O=C(NCC1CN(c2ccc(N3CCOCC3=O)cc2)C(=O)O1)c1ccc(Cl)s1 (stereo not drawn)", "class": "class 0"}
{"compound": "Cc1ncc([N+](=O)[O-])n1CCO", "class": "class 0"}
{"compound": "COc1cnc(NS(=O)(=O)c2ccc(N)cc2)nc1", "class": "class 0"}
{"compound": "C[C@@H]1CN(c2c(F)c(N)c3c(=O)c(C(=O)O)cn(C4CC4)c3c2F)C[C@H](C)N1", "class": "class 0"}
{"compound": "CCC(=O)O[C@]1(C(=O)CCl)[C@@H](C)C[C@H]2[C@@H]3CCC4=CC(=O)C=C[C@]4(C)[C@@]3(F)[C@@H](O)C[C@@]21C", "class": "class 0"}
{"compound": "CNS(=O)(=O)CCc1ccc2[nH]cc(C3CCN(C)CC3)c2c1", "class": "class 0"}
{"compound": "C[C@@H](NCCCc1cccc(C(F)(F)F)c1)c1cccc2ccccc12", "class": "class 0"}
{"compound": "CC(C)C1CCC(C(=O)N[C@H](Cc2ccccc2)C(=O)O)CC1 (stereo partly drawn)", "class": "class 0"}
{"compound": "CCC(=O)O[C@]1(C(=O)SCF)[C@H](C)C[C@H]2[C@@H]3C[C@H](F)C4=CC(=O)C=C[C@]4(C)[C@@]3(F)[C@@H](O)C[C@@]21C", "class": "class 0"}
{"compound": "CN1CCN(c2c(F)cc3c(=O)c(C(=O)O)cn(CCF)c3c2F)CC1", "class": "class 0"}
{"compound": "COc1ccc(-c2ccc3cc(C(=O)O)ccc3c2)cc1C12CC3CC(CC(C3)C1)C2", "class": "class 0"}
{"compound": "O=c1oc2c(O)c(O)cc3c(=O)oc4c(O)c(O)cc1c4c23", "class": "class 0"}
{"compound": "CC(N)C12CC3CC(CC(C3)C1)C2 (stereo not drawn)", "class": "class 0"}
{"compound": "Cc1ccnc2c1NC(=O)c1cccnc1N2C1CC1", "class": "class 0"}
{"compound": "CC[C@H](C)C(=O)O[C@H]1C[C@@H](C)C=C2C=C[C@H](C)[C@H](CC[C@@H]3C[C@@H](O)CC(=O)O3)[C@H]21", "class": "class 0"}
